# TEST_DETAILS: Displacement of [35S](2S,3S,4S,5R,6S)-6-(4-((2S,3R)-3-((S)-3-(4-fluorophenyl)-3-hydroxypropyl)-1-(4-(3-(methylsulfonamido)prop-1-ynyl)phenyl)-4-oxoazetidin-2-yl)phenoxy)-3,4,5-trihydroxytetrahydro-2H-pyran-2-carboxylic acid from NPC1L1 in guinea pig enterocyte brush border membrane
# Set-up: species or system Cavia porcellus
Overview of reported IC50 across a group of molecules:
READOUT: IC50

- O=C([C@@H]1C[C@@H](c2ccccc2)CN1C(=O)c1ccccc1)N1CCC2(C=Cc3ccccc32)CC1: 118 µM
- CS(=O)(=O)NCC#CN1C(=O)[C@H](CC[C@H](O)c2ccc(F)cc2)[C@H]1c1ccc(O[C@@H]2O[C@H](C(=O)O)[C@@H](O)[C@H](O)[C@H]2O)cc1: 0.071 µM
- O=C(O)[C@H]1O[C@@H](Oc2ccc([C@@H]3[C@@H](CC[C@H](O)c4ccc(F)cc4)C(=O)N3c3ccc(F)cc3)cc2)[C@H](O)[C@@H](O)[C@@H]1O: 3.3 µM
- CC(C)(C)c1ccc(C(=O)N2CCC3(CC2)C(=O)N(CC(=O)N2CCCCC2)CN3c2ccccc2)cc1: 470 µM

----------
// IC50 lookup, one value per entry
# TARGET_OF_ASSAY: NPC1-like intracellular cholesterol transporter 1 (Rattus norvegicus)
# Sequence (Q6T3U3 21-1331 limits assumed): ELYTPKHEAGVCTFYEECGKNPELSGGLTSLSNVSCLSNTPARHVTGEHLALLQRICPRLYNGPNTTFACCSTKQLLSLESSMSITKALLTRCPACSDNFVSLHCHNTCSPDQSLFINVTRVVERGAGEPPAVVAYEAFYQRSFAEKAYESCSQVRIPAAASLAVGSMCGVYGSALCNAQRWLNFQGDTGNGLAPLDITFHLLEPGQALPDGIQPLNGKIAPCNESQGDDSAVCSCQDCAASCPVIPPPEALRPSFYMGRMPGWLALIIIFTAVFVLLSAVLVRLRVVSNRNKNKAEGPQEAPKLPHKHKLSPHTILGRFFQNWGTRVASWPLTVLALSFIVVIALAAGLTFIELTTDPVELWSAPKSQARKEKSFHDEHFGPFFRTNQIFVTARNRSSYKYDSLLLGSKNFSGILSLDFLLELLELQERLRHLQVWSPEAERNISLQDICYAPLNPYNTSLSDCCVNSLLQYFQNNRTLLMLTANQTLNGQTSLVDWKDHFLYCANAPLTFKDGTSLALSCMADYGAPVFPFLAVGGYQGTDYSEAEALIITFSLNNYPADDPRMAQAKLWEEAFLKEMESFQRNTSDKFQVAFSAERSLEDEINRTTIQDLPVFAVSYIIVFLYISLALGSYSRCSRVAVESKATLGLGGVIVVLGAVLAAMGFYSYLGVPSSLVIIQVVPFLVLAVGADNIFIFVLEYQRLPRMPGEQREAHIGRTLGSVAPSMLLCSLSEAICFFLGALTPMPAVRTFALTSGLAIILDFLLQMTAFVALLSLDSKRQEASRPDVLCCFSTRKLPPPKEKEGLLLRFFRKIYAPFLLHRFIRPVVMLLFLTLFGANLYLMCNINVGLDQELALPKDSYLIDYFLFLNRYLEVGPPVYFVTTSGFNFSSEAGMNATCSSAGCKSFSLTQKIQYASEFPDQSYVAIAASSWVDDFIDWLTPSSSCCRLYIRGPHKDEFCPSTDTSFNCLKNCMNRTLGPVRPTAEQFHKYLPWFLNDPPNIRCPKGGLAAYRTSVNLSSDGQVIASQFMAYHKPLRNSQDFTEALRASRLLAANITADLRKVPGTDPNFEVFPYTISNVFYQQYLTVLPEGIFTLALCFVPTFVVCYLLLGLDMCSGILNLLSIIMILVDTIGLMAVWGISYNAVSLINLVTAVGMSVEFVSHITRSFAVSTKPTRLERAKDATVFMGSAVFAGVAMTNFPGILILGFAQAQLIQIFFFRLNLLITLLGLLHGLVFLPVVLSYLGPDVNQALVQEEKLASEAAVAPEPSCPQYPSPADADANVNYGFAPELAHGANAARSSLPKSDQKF
# TEST_DETAILS: Displacement of [35S](2S,3S,4S,5R,6S)-6-(4-((2S,3R)-3-((S)-3-(4-fluorophenyl)-3-hydroxypropyl)-1-(4-(3-(methylsulfonamido)prop-1-ynyl)phenyl)-4-oxoazetidin-2-yl)phenoxy)-3,4,5-trihydroxytetrahydro-2H-pyran-2-carboxylic acid from NPC1L1 in rat enterocyte brush border membrane
READOUT: IC50 (µM)

• CS(=O)(=O)NCC#CN1C(=O)[C@H](CC[C@H](O)c2ccc(F)cc2)[C@H]1c1ccc(O[C@@H]2O[C@H](C(=O)O)[C@@H](O)[C@H](O)[C@H]2O)cc1 = 0.016
• CC(C)(C)c1ccc(C(=O)N2CCC3(CC2)C(=O)N(CC(=O)N2CCCCC2)CN3c2ccccc2)cc1 = 110
• O=C([C@@H]1C[C@@H](c2ccccc2)CN1C(=O)c1ccccc1)N1CCC2(C=Cc3ccccc32)CC1 = 34
• O=C(O)[C@H]1O[C@@H](Oc2ccc([C@@H]3[C@@H](CC[C@H](O)c4ccc(F)cc4)C(=O)N3c3ccc(F)cc3)cc2)[C@H](O)[C@@H](O)[C@@H]1O = 0.58

----------
# TARGET_OF_ASSAY: UniProtKB A0MJA4
# Sequence (A0MJA4 whole entry): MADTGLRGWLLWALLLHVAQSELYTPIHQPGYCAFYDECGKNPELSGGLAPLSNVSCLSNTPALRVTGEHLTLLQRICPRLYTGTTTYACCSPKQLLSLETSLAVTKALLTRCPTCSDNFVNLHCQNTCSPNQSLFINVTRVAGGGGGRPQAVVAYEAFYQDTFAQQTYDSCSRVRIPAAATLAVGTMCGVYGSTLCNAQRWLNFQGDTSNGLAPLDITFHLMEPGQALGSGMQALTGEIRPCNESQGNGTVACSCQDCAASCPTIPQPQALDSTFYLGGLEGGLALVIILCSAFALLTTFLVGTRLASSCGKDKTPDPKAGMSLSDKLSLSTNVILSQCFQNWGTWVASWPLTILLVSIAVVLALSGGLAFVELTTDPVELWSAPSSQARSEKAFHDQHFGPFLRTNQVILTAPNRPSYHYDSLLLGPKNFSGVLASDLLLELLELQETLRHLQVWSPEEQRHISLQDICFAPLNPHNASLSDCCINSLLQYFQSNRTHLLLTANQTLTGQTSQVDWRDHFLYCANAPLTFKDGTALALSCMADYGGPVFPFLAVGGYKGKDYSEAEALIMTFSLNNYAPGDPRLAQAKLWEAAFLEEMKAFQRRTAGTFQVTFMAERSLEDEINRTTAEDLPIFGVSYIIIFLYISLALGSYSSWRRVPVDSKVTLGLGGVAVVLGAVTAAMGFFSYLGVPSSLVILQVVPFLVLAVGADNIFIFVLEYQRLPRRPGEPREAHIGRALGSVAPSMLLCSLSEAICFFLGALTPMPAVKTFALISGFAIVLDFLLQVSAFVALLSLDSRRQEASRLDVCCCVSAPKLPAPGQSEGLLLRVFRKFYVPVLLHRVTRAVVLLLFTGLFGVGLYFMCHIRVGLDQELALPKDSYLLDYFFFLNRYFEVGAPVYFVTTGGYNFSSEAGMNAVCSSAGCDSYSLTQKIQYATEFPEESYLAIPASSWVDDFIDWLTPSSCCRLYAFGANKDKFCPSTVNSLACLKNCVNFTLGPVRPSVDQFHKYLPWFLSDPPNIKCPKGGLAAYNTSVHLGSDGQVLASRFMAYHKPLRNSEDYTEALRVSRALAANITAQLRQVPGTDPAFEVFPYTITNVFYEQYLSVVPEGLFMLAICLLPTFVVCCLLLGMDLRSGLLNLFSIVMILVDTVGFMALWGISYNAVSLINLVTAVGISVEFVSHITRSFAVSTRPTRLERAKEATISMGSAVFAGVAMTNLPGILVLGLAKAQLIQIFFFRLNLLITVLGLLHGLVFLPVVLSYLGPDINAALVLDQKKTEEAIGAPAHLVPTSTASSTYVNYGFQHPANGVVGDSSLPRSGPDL
Quick reference for IC50 among some molecules
READOUT: IC50 (µM)

- CC(C)(C)c1ccc(C(=O)N2CCC3(CC2)C(=O)N(CC(=O)N2CCCCC2)CN3c2ccccc2)cc1: 170
- O=C(O)[C@H]1O[C@@H](Oc2ccc([C@@H]3[C@@H](CC[C@H](O)c4ccc(F)cc4)C(=O)N3c3ccc(F)cc3)cc2)[C@H](O)[C@@H](O)[C@@H]1O: 0.06

----------
# TARGET_OF_ASSAY: NPC1-like intracellular cholesterol transporter 1 (Homo sapiens, UniProt Q9UHC9)
# Sequence (Q9UHC9 whole entry): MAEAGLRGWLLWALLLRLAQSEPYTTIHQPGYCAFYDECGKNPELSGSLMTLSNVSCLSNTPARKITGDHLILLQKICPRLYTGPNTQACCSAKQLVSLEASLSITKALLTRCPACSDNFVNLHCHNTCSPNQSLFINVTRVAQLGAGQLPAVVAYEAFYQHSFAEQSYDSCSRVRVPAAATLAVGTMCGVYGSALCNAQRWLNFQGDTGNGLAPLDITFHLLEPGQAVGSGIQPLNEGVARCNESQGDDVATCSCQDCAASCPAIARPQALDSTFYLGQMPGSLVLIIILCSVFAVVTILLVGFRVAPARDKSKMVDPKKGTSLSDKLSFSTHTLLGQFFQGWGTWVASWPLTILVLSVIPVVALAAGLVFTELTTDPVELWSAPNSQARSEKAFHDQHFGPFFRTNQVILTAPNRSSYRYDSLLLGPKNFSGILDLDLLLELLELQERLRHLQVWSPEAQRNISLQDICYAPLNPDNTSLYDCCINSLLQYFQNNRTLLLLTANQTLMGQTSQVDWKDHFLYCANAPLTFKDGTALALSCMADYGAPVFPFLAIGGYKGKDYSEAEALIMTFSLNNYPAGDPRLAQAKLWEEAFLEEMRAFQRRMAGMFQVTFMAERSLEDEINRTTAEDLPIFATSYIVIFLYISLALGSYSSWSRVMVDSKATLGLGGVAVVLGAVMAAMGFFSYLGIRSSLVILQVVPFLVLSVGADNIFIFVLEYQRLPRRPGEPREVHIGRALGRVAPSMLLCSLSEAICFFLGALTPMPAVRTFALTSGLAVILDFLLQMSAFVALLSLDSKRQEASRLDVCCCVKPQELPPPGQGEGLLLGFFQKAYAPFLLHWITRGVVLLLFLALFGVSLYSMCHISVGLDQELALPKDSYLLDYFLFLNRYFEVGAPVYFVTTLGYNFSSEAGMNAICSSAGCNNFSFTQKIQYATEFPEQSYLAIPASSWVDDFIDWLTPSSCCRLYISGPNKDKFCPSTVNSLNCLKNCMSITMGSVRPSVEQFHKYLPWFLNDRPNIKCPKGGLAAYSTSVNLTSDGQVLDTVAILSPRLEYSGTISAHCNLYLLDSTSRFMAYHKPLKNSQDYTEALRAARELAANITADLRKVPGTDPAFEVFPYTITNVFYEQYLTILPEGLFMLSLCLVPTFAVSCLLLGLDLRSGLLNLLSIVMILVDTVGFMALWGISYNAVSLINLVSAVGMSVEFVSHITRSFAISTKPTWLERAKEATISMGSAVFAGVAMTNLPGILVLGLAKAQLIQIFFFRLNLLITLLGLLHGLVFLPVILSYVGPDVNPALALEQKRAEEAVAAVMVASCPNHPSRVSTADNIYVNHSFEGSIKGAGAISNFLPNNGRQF
# TEST_DETAILS: Displacement of [35S](2S,3S,4S,5R,6S)-6-(4-((2S,3R)-3-((S)-3-(4-fluorophenyl)-3-hydroxypropyl)-1-(4-(3-(methylsulfonamido)prop-1-ynyl)phenyl)-4-oxoazetidin-2-yl)phenoxy)-3,4,5-trihydroxytetrahydro-2H-pyran-2-carboxylic acid from human recombinant NPC1L1 expressed in HEK293 cells
# Format: cell-based
pIC50: −log10 of the molar value.
READOUT: pIC50

* CC(C)(C)c1ccc(C(=O)NS(=O)(=O)N2CC3(CCN(C(=O)OCCc4ccccc4)CC3)c3ccccc32)cc1 | 4.10
* O=C([C@@H]1C[C@@H](c2ccccc2)CN1C(=O)c1ccccc1)N1CCC2(C=Cc3ccccc32)CC1 | 6.18
* CC(C)CNC(=O)CN1CN(c2ccccc2)C2(CCN(C(=O)c3ccc(C(C)(C)C)cc3)CC2)C1=O | 5.36
* Cn1c(N(Cc2ccc(OCCCC(=O)O)cc2)[C@H]2CC[C@H](C(C)(C)C)CC2)nc2cc(OC3CCCC3)ccc21 | 5.13
